- Test system: Kidney
- PROTOCOL_SUMMARY: In vivo stability in C57Bl/6 mouse kidney assessed as compound hydrolysis at 10 mg/kg, iv administered as single dose measured after 60 mins by LC-MS/MS analysis
- Type: ADME, organism-based
- TEST_CONDITIONS: 1 h
PROPERTY_LABEL: Stability

compound="C=C1C[C@@]23C=CC(=O)[C@@](C)(CCC(=O)Nc4c(O)ccc(C(=O)O)c4O)[C@@H]2C[C@@H]1CC3 [PLATENCIN]" observed_measurement=Unstable
compound=C[C@]12C[C@@]34C=CC(=O)[C@@](C)(CCNC(=O)Nc5c(O)ccc(C(=O)O)c5O)[C@@H]3[C@H](C[C@@H]1C4)O2 observed_measurement=Stable
compound=C[C@]12C[C@@]34C=CC(=O)[C@@](C)(CCC(=O)Nc5c(O)ccc(C(=O)O)c5O)[C@@H]3[C@H](C[C@@H]1C4)O2 observed_measurement=Unstable
compound=C[C@]12C[C@@]34C=CC(=O)[C@@](C)(CCNC(=O)Oc5c(O)ccc(C(=O)O)c5O)[C@@H]3[C@H](C[C@@H]1C4)O2 observed_measurement=Stable

====

- PROTOCOL_SUMMARY: Observed clearance in C57Bl/6 mouse at 3 mg/kg, iv administered as single dose by LC-MS/MS analysis
- Assay type: ADME, organism-based
- TEST_CONDITIONS: in vivo
Listed molecules paired with reported clearance
Record the result as number plus unit.

molecule="C=C1C[C@@]23C=CC(=O)[C@@](C)(CCC(=O)Nc4c(O)ccc(C(=O)O)c4O)[C@@H]2C[C@@H]1CC3 [PLATENCIN]" observed_measurement="23 mL/min/kg"

Would you kindly look at the next entry?
Quick note, clearance for C[C@]12C[C@@]34C=CC(=O)[C@@](C)(CCC(=O)Nc5c(O)ccc(C(=O)O)c5O)[C@@H]3[C@H](C[C@@H]1C4)O2 landed at 16 mL/min/kg

====

- Test system: Liver
- PROTOCOL_SUMMARY: In vivo stability in C57Bl/6 mouse liver assessed as compound hydrolysis at 10 mg/kg, iv administered as single dose measured after 60 mins by LC-MS/MS analysis
- Format: ADME, organism-based
- TEST_CONDITIONS: 1 h
PROPERTY_LABEL: Stability

structure_notation=C[C@]12C[C@@]34C=CC(=O)[C@@](C)(CCNC(=O)Oc5c(O)ccc(C(=O)O)c5O)[C@@H]3[C@H](C[C@@H]1C4)O2 observed_measurement=Stable
structure_notation=C=C1C[C@@]23C=CC(=O)[C@@](C)(CCC(=O)Nc4c(O)ccc(C(=O)O)c4O)[C@@H]2C[C@@H]1CC3 observed_measurement=Unstable
structure_notation=C[C@]12C[C@@]34C=CC(=O)[C@@](C)(CCNC(=O)Nc5c(O)ccc(C(=O)O)c5O)[C@@H]3[C@H](C[C@@H]1C4)O2 observed_measurement=Stable
structure_notation=C[C@]12C[C@@]34C=CC(=O)[C@@](C)(CCC(=O)Nc5c(O)ccc(C(=O)O)c5O)[C@@H]3[C@H](C[C@@H]1C4)O2 observed_measurement=Unstable

====

- PROTOCOL_SUMMARY: Drug level in C57Bl/6 mouse urine at 10 mg/kg, iv administered as single dose measured after 60 mins by LC-MS/MS analysis
- Format: ADME, organism-based
- TEST_CONDITIONS: C57Bl/6, mouse, urine, read-out: Drug uptake
PROPERTY_LABEL: dose excreted at 1 h

// dose excreted at 1 h lookup, molecule = C[C@]12C[C@@]34C=CC(=O)[C@@](C)(CCC(=O)Nc5c(O)ccc(C(=O)S[C@H]6CC(=O)[C@@](C)(CCC(=O)Nc7c(O)ccc(C(=O)O)c7O)[C@@H]7[C@@H]8C[C@@H]9C[C@]67C[C@]9(C)O8)c5O)[C@@H]3[C@H](C[C@@H]1C4)O2 , result: < 1%

====

# clearance values compiled below
- PROTOCOL_SUMMARY: Observed clearance in C57Bl/6 mouse at 10 mg/kg, iv administered as single dose by LC-MS/MS analysis
- Type: ADME, organism-based
- TEST_CONDITIONS: in vivo
A number alone suffices; assume mL/min/kg.

structure_notation=C[C@@]1(O)C[C@]23C[C@H]1CC[C@H]2[C@]1(C)CCC(=O)Nc2c(O)ccc(c2O)C(=O)S[C@H]2CC(=O)[C@@](C)(CCC(=O)Nc4c(O)ccc(c4O)C(=O)S[C@H]3CC1=O)[C@@H]1CC[C@@H]3C[C@]21C[C@@]3(C)O unit_abbrev=mL/min/kg observed_measurement=3

Turning now to a further record.
Lab note: C[C@]12C[C@@]34C=CC(=O)[C@@](C)(CCC(=O)Nc5c(O)ccc(C(=O)S[C@H]6CC(=O)[C@@](C)(CCC(=O)Nc7c(O)ccc(C(=O)O)c7O)[C@@H]7[C@@H]8C[C@@H]9C[C@]67C[C@]9(C)O8)c5O)[C@@H]3[C@H](C[C@@H]1C4)O2 gave clearance of 11

====

Each entry below carries its reported Kp at 1 h.
- PROTOCOL_SUMMARY: Ratio of drug level in C57Bl/6 mouse kidney to plasma at 10 mg/kg, iv administered as single dose measured after 60 mins by LC-MS/MS analysis
- Format: ADME, organism-based

structure_notation=C[C@]12C[C@@]34C=CC(=O)[C@@](C)(CCC(=O)Nc5c(O)ccc(C(=O)O)c5O)[C@@H]3[C@H](C[C@@H]1C4)O2 observed_measurement=0.5
structure_notation=C[C@]12C[C@@]34C=CC(=O)[C@@](C)(CCC(=O)Nc5c(O)ccc(C(=O)S[C@H]6CC(=O)[C@@](C)(CCC(=O)Nc7c(O)ccc(C(=O)O)c7O)[C@@H]7[C@@H]8C[C@@H]9C[C@]67C[C@]9(C)O8)c5O)[C@@H]3[C@H](C[C@@H]1C4)O2 observed_measurement=0.2

Please examine the following record next.
Record C=C1C[C@@]23C=CC(=O)[C@@](C)(CCC(=O)Nc4c(O)ccc(C(=O)O)c4O)[C@@H]2C[C@@H]1CC3 , field Kp at 1 h: 1.4

====

- PROTOCOL_SUMMARY: Elimination half life in C57Bl/6 mouse at 10 mg/kg, iv administered as single dose by LC-MS/MS analysis
- Assay type: ADME, organism-based
- TEST_CONDITIONS: in vivo, read-out: beta t1/2 (converted)
Catalogue of half-life values
Answer format: numeric, min implied, no suffix.

structure_notation=C[C@]12C[C@@]34C=CC(=O)[C@@](C)(CCC(=O)Nc5c(O)ccc(C(=O)S[C@H]6CC(=O)[C@@](C)(CCC(=O)Nc7c(O)ccc(C(=O)O)c7O)[C@@H]7[C@@H]8C[C@@H]9C[C@]67C[C@]9(C)O8)c5O)[C@@H]3[C@H](C[C@@H]1C4)O2 unit_abbrev=min observed_measurement=66

The compound identified as C[C@@]1(O)C[C@]23C[C@H]1CC[C@H]2[C@]1(C)CCC(=O)Nc2c(O)ccc(c2O)C(=O)S[C@H]2CC(=O)[C@@](C)(CCC(=O)Nc4c(O)ccc(c4O)C(=O)S[C@H]3CC1=O)[C@@H]1CC[C@@H]3C[C@]21C[C@@]3(C)O registered its half-life at 45.6

====

- PROTOCOL_SUMMARY: Ratio of drug level in C57Bl/6 mouse liver to plasma at 10 mg/kg, iv administered as single dose measured after 60 mins by LC-MS/MS analysis
- Format: ADME, organism-based
Entries and their Kp at 1 h
Respond with the number and no other words.

compound=C[C@]12C[C@@]34C=CC(=O)[C@@](C)(CCC(=O)Nc5c(O)ccc(C(=O)S[C@H]6CC(=O)[C@@](C)(CCC(=O)Nc7c(O)ccc(C(=O)O)c7O)[C@@H]7[C@@H]8C[C@@H]9C[C@]67C[C@]9(C)O8)c5O)[C@@H]3[C@H](C[C@@H]1C4)O2 property_label="Kp at 1 h" observed_measurement=0.6
compound="C=C1C[C@@]23C=CC(=O)[C@@](C)(CCC(=O)Nc4c(O)ccc(C(=O)O)c4O)[C@@H]2C[C@@H]1CC3 [PLATENCIN]" property_label="Kp at 1 h" observed_measurement=3.8

Read the next record carefully.
Entry C[C@]12C[C@@]34C=CC(=O)[C@@](C)(CCC(=O)Nc5c(O)ccc(C(=O)O)c5O)[C@@H]3[C@H](C[C@@H]1C4)O2 ; Kp at 1 h = 6.2

====

Parameter half-life: see the listing below.
- PROTOCOL_SUMMARY: Elimination half life in C57Bl/6 mouse at 3 mg/kg, iv administered as single dose by LC-MS/MS analysis
- Format: ADME, organism-based
- TEST_CONDITIONS: in vivo, read-out: beta t1/2 (converted)

For C=C1C[C@@]23C=CC(=O)[C@@](C)(CCC(=O)Nc4c(O)ccc(C(=O)O)c4O)[C@@H]2C[C@@H]1CC3 [PLATENCIN] the compound record lists half-life as 13.2 min

Kindly note the recorded half-life for C[C@]12C[C@@]34C=CC(=O)[C@@](C)(CCC(=O)Nc5c(O)ccc(C(=O)O)c5O)[C@@H]3[C@H](C[C@@H]1C4)O2 , which is 210 min

// data source = ChEMBL document CHEMBL3994662
